B1: tRNA (parent)
chain: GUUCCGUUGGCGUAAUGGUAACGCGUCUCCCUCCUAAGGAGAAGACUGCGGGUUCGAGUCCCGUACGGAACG

Variants of: B1
assay.text: yeast fitness relative to wild type (ratio to wild type); higher = fitter; tRNA-Arg(CCU), competitive growth, 37 C, YPD
Fewer inactive variants are shown than the library holds.
Reported yeast fitness values for the following variants.
Output spec: single numeric token, no unit.

C33U G68C :: 0.686
C55G C66G :: 0.768

response.value for C4G G9C C34A A40C (field: yeast fitness) = 0.538

According to the records, this variant C27U A40C C46U displays yeast fitness of 0.661
